- Test Details: Binding affinity to AT-rich FAM-TATAAGATTTTCTTATA-TAMRA DNA (unknown origin) assessed as change in melting temperature at 1 uM by FRET assay
Each record here notes measured ΔTm.
Kindly provide the numeric value in °C only, without the unit symbol.

Look over these answered cases.
COC(=O)c1cc(-c2ccc(NC(=O)CCCOc3cc4c(cc3OC)C(=O)N3CCC[C@H]3C=N4)cc2)cn1C: 0.3
COC(=O)c1cc(NC(=O)c2cc(NC(=O)c3cc(-c4ccc(NC(=O)CCCOc5cc6c(cc5OC)C(=O)N5CCC[C@H]5C=N6)cc4)cn3C)cn2C)cn1C: 3.2
CCOC(=O)c1nc(NC(=O)c2cc(-c3ccc(NC(=O)CCCOc4cc5c(cc4OC)C(=O)N4CCC[C@H]4C=N5)cc3)cn2C)cn1C: 0.5

# ---- query molecule ----
Looking for the measured ΔTm of COc1cc2c(cc1OCCCC(=O)O)N=C[C@@H]1CCCN1C2=O , can you help?
0.4
